Source: PubChem BioAssay (NCI)

Measured growth accompanies every entry in the list below.
Tested on: NCI-H460 lung
measurement-description: NCI-60 one-dose screen, 48 h (100 = growth as untreated, 0 = no growth, -100 = all killed)
applied-conditions: 10 µM unless noted
Compounds without any hit were thinned out: in the full panel of roughly 83,000, 20% have a hit.
Just the number in %, nothing appended.

Some solved entries appear below for comparison.
compound	unit-of-measurement	growth
O=C1CCC(c2c(O)cc(O)c3c(=O)c(O)c(-c4ccc(O)c(O)c4)oc23)N1 (stereo not given)	%	105
COc1cc2ncn3c(=O)c4c5c(sc4nc3c2cc1OC)CCCCC5	%	99.5
O=C(COc1ccc(Cl)cc1Cl)N1N=C(c2ccc(Cl)cc2Cl)CC1(O)c1cc(F)c(Cl)cc1Cl (stereo not given)	%	107
O=C1COc2ccccc2C(=O)N1CCCCNc1ccccc1	%	98.7
COc1cc(Br)c(-c2nc(-c3ccccc3)c(-c3ccccc3)n2Cc2ccccc2)cc1OC	%	48.9

Which growth is listed for Cc1ccc(NC(=O)CN2CCOCC2)cc1Cl ? 100

Would you kindly repeat that for Nn1c(CN2CCN(c3cc4c(cc3F)c(=O)c(C(=O)O)cn4C3CC3)CC2)n[nH]c1=S ? 109
